- Measured on: T1, human C5 R885H-mmh (human, UniProt P01031 19-1676)
- T1 construct: also called human C5 variant R885H
- Measurement notes: SPR, mAb captured via anti-hFc, 37C
Parameter: koff. Scope: all listed entries.

Binder | U | koff
H4H12175P (antibody, human IgG4, V domains shown, Human IgG4 Fc with S108P hinge mutation (H4H)) VH: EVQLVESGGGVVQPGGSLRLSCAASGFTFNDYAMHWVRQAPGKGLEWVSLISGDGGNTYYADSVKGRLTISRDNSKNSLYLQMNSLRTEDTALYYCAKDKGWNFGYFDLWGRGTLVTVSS VL: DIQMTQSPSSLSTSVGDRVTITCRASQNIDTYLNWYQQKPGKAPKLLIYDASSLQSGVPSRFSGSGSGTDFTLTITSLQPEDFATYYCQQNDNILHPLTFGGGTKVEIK | s⁻¹ | 0.0095
H4H12159P (antibody, human IgG4, V domains shown, Human IgG4 Fc with S108P hinge mutation (H4H)) VH: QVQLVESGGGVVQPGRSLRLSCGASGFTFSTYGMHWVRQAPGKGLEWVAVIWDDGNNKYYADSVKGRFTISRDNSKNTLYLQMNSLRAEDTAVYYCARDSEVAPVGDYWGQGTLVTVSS VL: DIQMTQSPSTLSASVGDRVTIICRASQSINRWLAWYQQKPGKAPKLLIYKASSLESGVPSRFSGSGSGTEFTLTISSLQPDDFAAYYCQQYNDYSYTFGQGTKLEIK | s⁻¹ | 0.000948
H4H11683N (antibody, V domains shown, also called H2M11683N) VH: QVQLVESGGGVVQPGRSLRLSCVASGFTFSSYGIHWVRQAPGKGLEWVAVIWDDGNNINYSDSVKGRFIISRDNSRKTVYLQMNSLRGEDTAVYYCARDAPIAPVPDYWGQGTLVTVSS VL: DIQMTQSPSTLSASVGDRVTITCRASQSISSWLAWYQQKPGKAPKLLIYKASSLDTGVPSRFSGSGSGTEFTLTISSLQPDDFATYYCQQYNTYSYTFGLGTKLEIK | s⁻¹ | 0.00147
H4H12168P (antibody, human IgG4, V domains shown, Human IgG4 Fc with S108P hinge mutation (H4H)) VH: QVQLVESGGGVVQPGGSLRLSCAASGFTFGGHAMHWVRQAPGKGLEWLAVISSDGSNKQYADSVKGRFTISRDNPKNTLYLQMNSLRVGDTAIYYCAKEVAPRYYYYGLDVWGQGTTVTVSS VL: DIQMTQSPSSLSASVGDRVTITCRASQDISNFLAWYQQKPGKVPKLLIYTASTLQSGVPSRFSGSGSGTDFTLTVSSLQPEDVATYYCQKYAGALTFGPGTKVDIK | s⁻¹ | 0.00123
